molecular target: PrRPR mutants (Homo sapiens, UniProt P49683, D302A/E213A/H321A/Q141A); construct: expressed in transfected cells; host or cells: HEK293, transient transfection by electroporation; assay: PrRP-20-induced calcium mobilization, receptor mutants; assay type: cell-based; conditions: PrRPR D302^6.59A; HEK293, Fluo-4; mean ± S.E.M., n ≥ 3
No end group written: not given here.
Value kind: EC50 (nM)

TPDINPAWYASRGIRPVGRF-NH2 [PrRP-20, prolactin-releasing peptide]
11.2

---

Molecular target: PrRPR mutants (Homo sapiens, UniProt P49683, D302A/E213A/H321A/Q141A)
Construct: expressed in transfected cells; host or cells: HEK293, transient transfection by electroporation
Sequence (P49683 1-370 Q141A/E213A/D302A/H321A): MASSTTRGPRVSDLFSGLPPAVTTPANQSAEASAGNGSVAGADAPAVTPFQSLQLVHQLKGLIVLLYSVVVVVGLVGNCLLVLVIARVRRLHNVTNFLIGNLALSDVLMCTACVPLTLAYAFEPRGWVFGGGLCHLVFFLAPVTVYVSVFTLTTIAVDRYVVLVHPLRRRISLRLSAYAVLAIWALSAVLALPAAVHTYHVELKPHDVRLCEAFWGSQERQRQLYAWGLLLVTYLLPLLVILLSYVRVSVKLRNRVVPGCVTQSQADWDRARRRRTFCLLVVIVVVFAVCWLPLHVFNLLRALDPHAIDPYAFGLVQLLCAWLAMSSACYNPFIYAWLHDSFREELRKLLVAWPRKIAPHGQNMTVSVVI
Assay: PrRP-20-induced calcium mobilization, receptor mutants
Assay type: cell-based
Conditions: PrRPR H321^7.39A; HEK293, Fluo-4; mean ± S.E.M., n ≥ 3
Experimental: The gene encoding the WT QRFPR, PrPRR, KISS1R, NPFF1R, or NPFF2R was subcloned into the pcDNA3.0 vector with the addition of an N-terminal HA tag. […] For QRFPR, PrRPR, and KISS1R, HEK293 cells transfected with WT receptor or its mutants were seeded at a density of 4 × 10^4 per well into 96-well culture plates and incubated for 24 h at 37 °C in 5% CO2. […] EC50 and Emax values for each curve were calculated by Prism 8.0 software (GraphPad Software).
No end group written: not given here.
Value kind: EC50 (nM)

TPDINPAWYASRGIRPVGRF-NH2 [PrRP-20, prolactin-releasing peptide]
14.8
